Sourced from ChEMBL document CHEMBL1122683

# Species: Cavia porcellus
# test.method.notes: Dose representing 50% inhibition of positive chronotropic response to histamine in guinea pig atrium (5 x 10e -6M)
# Assay type: functional
# assay.conditions: Cardiac atrium, read-out: ED50 (the source's name)
So I've got a bunch of compounds here, and I need their pEC50 values.
// returns pEC50 (minus log10 of molar concentration), number only

What does the data say about its pEC50? Entry: N#CNC(=N)CCSCc1csc(NC(=N)N)n1
6.74

What does the data say about its pEC50? Entry: C/N=C(/CCSCc1ccc(CN(C)C)o1)NC#N
3.77

What does the data say about its pEC50? Entry: NC(=O)CCSCc1csc(N=C(N)N)n1
6.00

What does the data say about its pEC50? Entry: CN(C)Cc1cccc(OCCCC(=N)NC#N)c1
4.70

What does the data say about its pEC50? Entry: C/N=C(/N)Nc1nc(CSCCC(=N)NC(N)=O)cs1.Cl.Cl
6.49

What does the data say about its pEC50? Entry: CN/C(=N\CCSCc1nc[nH]c1C)NC#N [CIMETIDINE]
5.57

What does the data say about its pEC50? Entry: CC(=N)Nc1nc(CSCCC(=N)NC(N)=O)cs1
5.60

What does the data say about its pEC50? Entry: C/N=C(/N)Nc1nc(CSCCC(=N)NC#N)cs1
5.92

What does the data say about its pEC50? Entry: N#CNC(=N)CCCCc1csc(NC(=N)N)n1
6.92

What does the data say about its pEC50? Entry: C/N=C(/CCSCc1csc(N=C(N)N)n1)NC#N
6.01

What does the data say about its pEC50? Entry: N#CNC(=N)CCCOc1cccc(CN2CCCC2)c1
4.89
